- Tested target: Ephrin type-A receptor 2 (Homo sapiens, UniProt P29317)
- Sequence (P29317 whole entry, the tested form may be a part): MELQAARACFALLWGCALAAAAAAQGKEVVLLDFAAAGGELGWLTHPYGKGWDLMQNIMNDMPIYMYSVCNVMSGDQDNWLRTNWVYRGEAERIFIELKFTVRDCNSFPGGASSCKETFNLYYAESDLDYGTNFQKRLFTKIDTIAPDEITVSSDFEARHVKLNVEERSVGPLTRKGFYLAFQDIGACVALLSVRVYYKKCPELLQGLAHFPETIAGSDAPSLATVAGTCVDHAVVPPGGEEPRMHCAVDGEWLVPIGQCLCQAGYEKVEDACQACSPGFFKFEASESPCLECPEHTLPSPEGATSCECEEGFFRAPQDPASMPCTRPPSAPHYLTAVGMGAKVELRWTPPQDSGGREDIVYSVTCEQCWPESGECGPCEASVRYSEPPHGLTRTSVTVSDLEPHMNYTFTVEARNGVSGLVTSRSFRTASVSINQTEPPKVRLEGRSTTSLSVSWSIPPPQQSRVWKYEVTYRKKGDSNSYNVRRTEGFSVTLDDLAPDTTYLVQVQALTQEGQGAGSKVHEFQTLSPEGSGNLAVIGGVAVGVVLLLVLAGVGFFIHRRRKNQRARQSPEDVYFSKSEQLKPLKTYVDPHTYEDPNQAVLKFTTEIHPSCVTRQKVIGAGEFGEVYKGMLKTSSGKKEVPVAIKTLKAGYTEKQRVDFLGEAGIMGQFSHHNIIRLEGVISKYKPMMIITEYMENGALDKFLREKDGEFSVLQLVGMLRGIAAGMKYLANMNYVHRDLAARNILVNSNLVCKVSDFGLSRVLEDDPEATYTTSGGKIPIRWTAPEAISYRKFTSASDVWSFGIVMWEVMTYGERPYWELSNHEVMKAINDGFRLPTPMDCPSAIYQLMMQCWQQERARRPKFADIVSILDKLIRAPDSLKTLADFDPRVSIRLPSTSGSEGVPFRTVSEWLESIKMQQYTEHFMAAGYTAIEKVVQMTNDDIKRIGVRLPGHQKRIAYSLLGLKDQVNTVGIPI
- Test name: Inhibition of recombinant human N-terminal His6-tagged EphA2 (N598 to R890 residues) expressed in baculovirus using poly-EY as substrate after 180 mins by luciferase coupled chemiluminescence assay
Reported IC50 values for a set of compounds

Solved entries:
COc1cc2c(Nc3ccc(Cl)c(Cl)c3)ncnc2cc1OCC1CN(Cc2ccc(F)cc2)CCO1 (centres undefined) : 50 to 1000 nM
COc1cc2c(Nc3ccc(Cl)c(Cl)c3F)ncnc2cc1OCC1CN(C)C(C)(C)CO1 (centres undefined) : < 50 nM
COc1cc2c(Nc3ccc(Cl)c(Cl)c3)ncnc2cc1OCC1CN(CCCC#N)CCO1 (centres undefined) : < 50 nM

Attention now turns to another entry.
Entry under review: COc1cc2c(Nc3ccc(Cl)c(Cl)c3N3CCN(C)CC3)ncnc2cc1O[C@H]1CO[C@H]2[C@@H]1OC[C@@H]2F . Reported IC50? 1000 to 20000 nM

---

Reported IC50 values for a set of compounds
- Tested target: UniProt P29317
- Test name: Inhibition of recombinant human N-terminal His6-tagged EphA2 (N598 to R890 residues) expressed in baculovirus using poly-EY as substrate after 180 mins by luciferase coupled chemiluminescence assay

Solved entries:
COc1cc2c(Nc3ccc(Cl)c(Cl)c3)ncnc2cc1OCC1CN(CCC2OCCO2)CCO1 (stereo not drawn) : 50 to 1000 nM
COc1cc2c(Nc3ccc(Cl)c(Cl)c3)ncnc2cc1OCC1CN(C)C(C)(C)CO1 (stereo not drawn) : 50 to 1000 nM
COc1cc2c(Nc3ccc(Cl)c(Cl)c3)ncnc2cc1OC[C@H]1CN2CCC[C@H]2CO1 : < 50 nM

Entry under review: COCCOc1cc2c(Nc3ccc(Cl)c(Cl)c3)ncnc2cc1OCC1CN(C)CCO1 (stereo not drawn) . Reported IC50? 50 to 1000 nM

Entry under review: COc1cc2c(Nc3ccc(Cl)c(Cl)c3)ncnc2cc1OCC1CN(C(C)C(C)=O)CCO1 (stereo not drawn) . Reported IC50? 50 to 1000 nM

---

- Tested target: Vascular endothelial growth factor receptor 2 (Homo sapiens)
- Sequence (P35968 whole entry, the tested form may be a part): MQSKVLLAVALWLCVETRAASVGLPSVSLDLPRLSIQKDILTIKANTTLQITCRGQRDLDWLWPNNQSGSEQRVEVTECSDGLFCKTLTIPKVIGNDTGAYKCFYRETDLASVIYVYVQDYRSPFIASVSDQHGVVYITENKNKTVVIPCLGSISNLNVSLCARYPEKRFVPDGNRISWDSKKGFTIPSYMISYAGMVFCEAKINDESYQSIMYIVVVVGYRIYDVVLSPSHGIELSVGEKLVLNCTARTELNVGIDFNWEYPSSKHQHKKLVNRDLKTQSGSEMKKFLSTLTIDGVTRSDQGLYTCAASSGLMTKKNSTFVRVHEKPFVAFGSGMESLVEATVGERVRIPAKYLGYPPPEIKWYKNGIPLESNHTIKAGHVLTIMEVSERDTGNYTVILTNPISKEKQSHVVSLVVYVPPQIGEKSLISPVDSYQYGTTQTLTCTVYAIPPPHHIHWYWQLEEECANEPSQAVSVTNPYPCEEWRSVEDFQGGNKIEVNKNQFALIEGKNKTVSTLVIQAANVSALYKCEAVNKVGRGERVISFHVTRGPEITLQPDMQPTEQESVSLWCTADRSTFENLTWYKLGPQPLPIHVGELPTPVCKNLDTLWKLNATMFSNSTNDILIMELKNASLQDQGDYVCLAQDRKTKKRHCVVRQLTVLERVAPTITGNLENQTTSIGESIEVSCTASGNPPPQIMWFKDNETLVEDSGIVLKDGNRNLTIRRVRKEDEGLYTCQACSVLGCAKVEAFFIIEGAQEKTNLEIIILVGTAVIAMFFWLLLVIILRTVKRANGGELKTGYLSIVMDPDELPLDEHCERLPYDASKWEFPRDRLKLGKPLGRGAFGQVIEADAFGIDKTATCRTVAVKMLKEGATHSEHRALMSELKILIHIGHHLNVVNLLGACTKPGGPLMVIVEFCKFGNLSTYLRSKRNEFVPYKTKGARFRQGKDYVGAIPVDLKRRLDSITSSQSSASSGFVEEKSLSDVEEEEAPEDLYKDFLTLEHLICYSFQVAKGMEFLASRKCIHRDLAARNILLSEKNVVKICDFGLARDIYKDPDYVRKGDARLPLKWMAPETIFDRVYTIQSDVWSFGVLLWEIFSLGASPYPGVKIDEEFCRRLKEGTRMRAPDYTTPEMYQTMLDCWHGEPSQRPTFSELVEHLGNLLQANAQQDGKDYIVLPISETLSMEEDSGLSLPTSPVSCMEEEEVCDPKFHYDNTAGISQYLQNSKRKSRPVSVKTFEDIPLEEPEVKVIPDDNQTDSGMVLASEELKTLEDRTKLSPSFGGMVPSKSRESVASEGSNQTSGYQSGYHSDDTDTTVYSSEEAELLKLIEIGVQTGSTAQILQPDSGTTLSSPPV
- Test name: Inhibition of recombinant human N-terminal GST-fused KDR (D807 to V1356 residues) expressed in baculovirus infected […] insect Sf9 cells using poly-EY as substrate after 240 mins by luciferase coupled chemiluminescence assay
pIC50: −log10 of the molar value.
Quantity: pIC50

Reported pIC50 for Vascular endothelial growth factor receptor 2 (Homo sapiens), given COc1cc2c(Nc3ccc(Cl)c(Cl)c3)ncnc2cc1OCC1CN(CC2CCCCO2)CCO1 (stereo not given) ? > 7.30

Reported pIC50 for Vascular endothelial growth factor receptor 2 (Homo sapiens), given COc1cc2c(Nc3ccc(Cl)c(Cl)c3C)ncnc2cc1OCC1CN(C)CCO1 (stereo not given) ? 6.00 to 7.30

Reported pIC50 for Vascular endothelial growth factor receptor 2 (Homo sapiens), given CCCC(CCC)C(=O)N1CCOC(COc2cc3ncnc(Nc4ccc(Cl)c(Cl)c4)c3cc2OC)C1 (stereo not given) ? 6.00 to 7.30

Reported pIC50 for Vascular endothelial growth factor receptor 2 (Homo sapiens), given COc1cc2c(Nc3ccc(Cl)c(Cl)c3)ncnc2cc1OCCC1CN(C)CC(C)(C)O1 (stereo not given) ? 6.00 to 7.30

Reported pIC50 for Vascular endothelial growth factor receptor 2 (Homo sapiens), given COc1cc2c(Nc3cc(Cl)ccc3F)ncnc2cc1OCC1CN(C)CCO1 (stereo not given) ? 6.00 to 7.30

---

- Tested target: Ephrin type-A receptor 2 (Homo sapiens, UniProt P29317)
- Test name: Inhibition of recombinant human N-terminal His6-tagged EphA2 (N598 to R890 residues) expressed in baculovirus using poly-EY as substrate after 180 mins by luciferase coupled chemiluminescence assay
pIC50: −log10 of the molar value.
Quantity: pIC50

COC(=O)CCC(=O)N1CCOC(COc2cc3ncnc(Nc4ccc(Cl)c(Cl)c4)c3cc2OC)C1 (stereo not given) : 6.00 to 7.30
COc1cc2c(Nc3cc(Cl)c(Br)cc3F)ncnc2cc1OC[C@@H]1CN2CCOC[C@H]2CO1 : 6.00 to 7.30
COc1cc2c(Nc3ccc(Cl)c(Cl)c3)ncnc2cc1OCC1CN(CCCCCCO)CCO1 (stereo not given) : 6.00 to 7.30
COc1cc2c(Nc3ccc(Br)c(Cl)c3Cl)ncnc2cc1OC[C@@H]1CN2CCC[C@H]2CO1 : > 7.30

Reported pIC50 for Ephrin type-A receptor 2 (Homo sapiens, UniProt P29317), given COc1cc2c(Nc3ccc(Br)c(Cl)c3C)ncnc2cc1OCC1CN(C)CCO1 (stereo not given) ? 6.00 to 7.30

---

- Tested target: Ephrin type-B receptor 4 (Homo sapiens)
- Test name: Inhibition of recombinant human N-terminal His6-tagged EphB4 kinase domain (E605 to E890 residues) expressed in baculovirus using poly-AEKY as substrate after 150 mins in presence of gamma33P-ATP by liquid scintillation spectrometry
Quantity: IC50

COc1cc2c(Nc3ccc(C)c(Cl)c3Cl)ncnc2cc1OCC1CN(C)CCO1 (centres undefined) : 0.05 to 1 µM
COc1cc2c(Nc3ccc(F)c(Cl)c3F)ncnc2cc1OCC1CN(C)CCO1 (centres undefined) : < 0.05 µM
COc1cc2c(Nc3ccc(Cl)c(Cl)c3)ncnc2cc1OCc1csc(CN(C)C)n1 : 0.05 to 1 µM
COc1cc2c(Nc3ccc(Cl)c(Cl)c3)ncnc2cc1OCc1nc(CS(=O)(=O)c2ccccn2)no1 : 0.05 to 1 µM
COc1cc2c(Nc3ccc(Br)c(Cl)c3F)ncnc2cc1OCC1CN(C)C(C)(C)CO1 (centres undefined) : < 0.05 µM

Entry under review: CCCCCCCN1CCOC(COc2cc3ncnc(Nc4ccc(Cl)c(Cl)c4)c3cc2OC)C1 (centres undefined) . Reported IC50? 0.05 to 1 µM

Entry under review: C=CCN1CCOC(COc2cc3ncnc(Nc4ccc(Cl)c(Cl)c4)c3cc2OC)C1 (centres undefined) . Reported IC50? 0.05 to 1 µM

Entry under review: COc1cc2c(Nc3ccc(Cl)c(Cl)c3)ncnc2cc1OCC1CN(S(=O)(=O)c2ccc(F)cc2)CCO1 (centres undefined) . Reported IC50? 0.05 to 1 µM

Entry under review: COc1cc2c(Nc3ccc(Cl)c(Cl)c3F)ncnc2cc1OCC1CN(C)C(C)(C)CO1 (centres undefined) . Reported IC50? < 0.05 µM

---

Reported IC50 values for a set of compounds
- Tested target: Receptor tyrosine-protein kinase erbB-2 (Homo sapiens, UniProt P04626)
- Sequence (P04626 whole entry, the tested form may be a part): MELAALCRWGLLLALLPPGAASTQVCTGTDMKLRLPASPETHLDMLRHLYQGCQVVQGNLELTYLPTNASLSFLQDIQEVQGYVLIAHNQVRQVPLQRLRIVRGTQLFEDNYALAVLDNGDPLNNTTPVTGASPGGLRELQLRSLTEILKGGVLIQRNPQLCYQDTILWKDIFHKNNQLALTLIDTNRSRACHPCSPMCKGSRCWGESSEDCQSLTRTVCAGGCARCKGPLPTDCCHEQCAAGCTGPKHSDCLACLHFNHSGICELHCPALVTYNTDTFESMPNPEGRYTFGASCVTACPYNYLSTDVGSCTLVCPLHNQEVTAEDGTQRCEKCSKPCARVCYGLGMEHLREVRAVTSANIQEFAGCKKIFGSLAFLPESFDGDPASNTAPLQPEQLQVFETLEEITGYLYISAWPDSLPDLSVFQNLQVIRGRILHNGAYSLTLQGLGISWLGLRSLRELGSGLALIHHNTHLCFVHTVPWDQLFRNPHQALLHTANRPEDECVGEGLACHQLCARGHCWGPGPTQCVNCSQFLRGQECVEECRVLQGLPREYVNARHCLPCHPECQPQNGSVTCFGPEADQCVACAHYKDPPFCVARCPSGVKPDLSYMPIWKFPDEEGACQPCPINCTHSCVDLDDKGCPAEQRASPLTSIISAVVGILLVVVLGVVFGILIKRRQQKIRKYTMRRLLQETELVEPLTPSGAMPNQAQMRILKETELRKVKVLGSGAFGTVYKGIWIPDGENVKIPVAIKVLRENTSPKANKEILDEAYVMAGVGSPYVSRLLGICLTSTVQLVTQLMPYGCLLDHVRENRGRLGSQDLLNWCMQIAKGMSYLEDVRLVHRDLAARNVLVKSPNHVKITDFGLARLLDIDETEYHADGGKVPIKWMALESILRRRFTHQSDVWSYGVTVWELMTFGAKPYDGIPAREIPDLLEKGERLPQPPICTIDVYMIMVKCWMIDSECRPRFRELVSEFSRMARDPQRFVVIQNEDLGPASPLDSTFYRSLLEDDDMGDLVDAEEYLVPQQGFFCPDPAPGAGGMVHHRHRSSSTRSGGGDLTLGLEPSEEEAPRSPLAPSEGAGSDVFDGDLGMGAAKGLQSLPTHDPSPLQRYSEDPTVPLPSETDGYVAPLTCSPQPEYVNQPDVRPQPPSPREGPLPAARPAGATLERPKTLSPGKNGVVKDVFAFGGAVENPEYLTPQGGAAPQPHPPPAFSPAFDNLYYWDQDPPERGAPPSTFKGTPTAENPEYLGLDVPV
- Test name: Inhibition of recombinant human N-terminal GST His6-tagged thrombin cleavage site-fused ErbB2 kinase domain (Q679 to V1255 residues) expressed in baculovirus infected insect Sf9 cells using biotinylated poly-EY as substrate after 60 mins by alphascreen assay

Solved entries:
COc1cc2c(Nc3ccc(Br)c(Cl)c3F)ncnc2cc1OC[C@@H]1CN(C)CC(=O)N1C : 1 to 20 µM
COc1cc2c(Nc3ccc(Cl)c(Cl)c3F)ncnc2cc1OC[C@@H]1C[C@@H]2CN(C)C[C@@H]2C1 : < 0.05 µM
COc1cc2c(Nc3ccc(Br)c(Cl)c3Cl)ncnc2cc1OCC1CN(C)C(C)(C)CO1 (stereo not drawn) : 0.05 to 1 µM
COc1cc2c(Nc3ccc(Br)c(Cl)c3)ncnc2cc1O[C@H]1CO[C@H]2[C@@H]1OC[C@@H]2S(C)(=O)=O : 0.05 to 1 µM
COc1cc2c(Nc3ccc(Br)c(Cl)c3)ncnc2cc1O[C@H]1CO[C@H]2[C@@H]1OC[C@@H]2SC : 1 to 20 µM
COc1cc2c(Nc3ccc(Cl)c(Cl)c3)ncnc2cc1OCC1CN(C)C(C)(C)CO1 (stereo not drawn) : < 0.05 µM
COc1cc2c(Nc3ccc(Br)c(Cl)c3)ncnc2cc1O[C@H]1CO[C@H]2[C@@H]1OC[C@@H]2N1CCN(C)CC1 : 1 to 20 µM

Attention now turns to another entry.
Entry under review: COc1cc2c(Nc3ccc(Br)c(Cl)c3Cl)ncnc2cc1OCC1CN(C)CCO1 (stereo not drawn) . Reported IC50? 0.05 to 1 µM

---

- Tested target: UniProt:P54760
- Sequence (P54760 whole entry): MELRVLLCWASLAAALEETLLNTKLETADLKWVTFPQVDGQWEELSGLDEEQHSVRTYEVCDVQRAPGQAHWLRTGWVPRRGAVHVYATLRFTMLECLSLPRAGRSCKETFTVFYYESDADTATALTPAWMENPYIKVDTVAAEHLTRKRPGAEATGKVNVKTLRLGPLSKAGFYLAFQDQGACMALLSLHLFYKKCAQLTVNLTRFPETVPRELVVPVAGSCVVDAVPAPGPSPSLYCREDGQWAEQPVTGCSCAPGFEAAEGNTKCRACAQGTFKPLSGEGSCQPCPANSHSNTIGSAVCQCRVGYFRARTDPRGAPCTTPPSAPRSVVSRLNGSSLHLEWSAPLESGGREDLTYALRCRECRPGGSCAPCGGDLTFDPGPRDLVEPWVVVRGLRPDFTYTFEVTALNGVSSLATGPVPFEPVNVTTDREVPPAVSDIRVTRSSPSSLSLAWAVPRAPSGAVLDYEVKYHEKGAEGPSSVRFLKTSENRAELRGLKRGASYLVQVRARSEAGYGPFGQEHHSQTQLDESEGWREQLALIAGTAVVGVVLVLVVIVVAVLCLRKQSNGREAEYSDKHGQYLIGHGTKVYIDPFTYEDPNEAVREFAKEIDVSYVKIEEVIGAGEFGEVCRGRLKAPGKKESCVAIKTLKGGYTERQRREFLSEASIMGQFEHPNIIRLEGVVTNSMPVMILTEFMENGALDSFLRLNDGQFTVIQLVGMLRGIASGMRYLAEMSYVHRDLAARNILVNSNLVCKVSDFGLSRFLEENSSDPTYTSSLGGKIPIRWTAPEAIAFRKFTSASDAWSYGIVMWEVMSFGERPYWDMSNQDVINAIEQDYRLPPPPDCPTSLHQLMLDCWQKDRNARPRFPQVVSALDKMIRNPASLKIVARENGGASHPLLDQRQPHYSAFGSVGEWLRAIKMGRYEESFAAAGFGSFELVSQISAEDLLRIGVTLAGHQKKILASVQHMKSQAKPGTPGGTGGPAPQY
- Test name: Inhibition of recombinant human N-terminal His6-tagged EphB4 kinase domain (E605 to E890 residues) expressed in baculovirus using poly-AEKY as substrate after 150 mins in presence of gamma33P-ATP by liquid scintillation spectrometry
pIC50: −log10 of the molar value.
Reported pIC50 values for a set of compounds

Solved entries:
COc1cc2c(Nc3ccc(Br)c(Cl)c3F)ncnc2cc1OCC1CN(C)CCO1 (centres undefined) : > 7.30
COc1cc2c(Nc3ccc(Br)c(Cl)c3Cl)ncnc2cc1OC[C@@H]1CN2CCC[C@H]2CO1 : > 7.30
COc1cc2c(Nc3ccc(Cl)c(Cl)c3)ncnc2cc1OCC1CN(C(=O)c2cccc3ccccc23)CCO1 (centres undefined) : 6.00 to 7.30
COc1cc2c(Nc3ccc(Cl)c(Cl)c3)ncnc2cc1OCC1CN(CCCC#N)CCO1 (centres undefined) : > 7.30
COc1cc2c(Nc3ccc(Cl)c(Cl)c3)ncnc2cc1OCC1CN(CCO)CCO1 (centres undefined) : 6.00 to 7.30

Entry under review: COc1cc2c(Nc3ccc(Cl)c(Cl)c3)ncnc2cc1OCC1CN(CC=C(C)C)CCO1 (centres undefined) . Reported pIC50? 6.00 to 7.30

Entry under review: COc1cc2c(Nc3ccc(Cl)c(Cl)c3)ncnc2cc1OCC1CN(C)C(C)(C)C(=O)O1 (centres undefined) . Reported pIC50? > 7.30

Entry under review: CCCCCCCCN1CCOC(COc2cc3ncnc(Nc4ccc(Cl)c(Cl)c4)c3cc2OC)C1 (centres undefined) . Reported pIC50? 6.00 to 7.30

Entry under review: CCC(C(=O)N1CCOC(COc2cc3ncnc(Nc4ccc(Cl)c(Cl)c4)c3cc2OC)C1)c1ccccc1 (centres undefined) . Reported pIC50? 6.00 to 7.30

Entry under review: COc1cc2c(Nc3ccc(Cl)c(Cl)c3)ncnc2cc1OCc1csc(CN2CCN(C)CC2)n1 . Reported pIC50? > 7.30

Entry under review: COc1cc2c(Nc3ccc(Cl)c(Cl)c3)ncnc2cc1OCC1CN(C(=O)CCc2ccccc2)CCO1 (centres undefined) . Reported pIC50? 6.00 to 7.30

Entry under review: CCCCS(=O)(=O)N1CCOC(COc2cc3ncnc(Nc4ccc(Cl)c(Cl)c4)c3cc2OC)C1 (centres undefined) . Reported pIC50? 6.00 to 7.30

Entry under review: COc1cc2c(Nc3ccc(Cl)c(Cl)c3)ncnc2cc1OCC1CN(C/C=C/Br)CCO1 (centres undefined) . Reported pIC50? 6.00 to 7.30

Entry under review: COc1cc2c(Nc3ccc(Cl)c(Cl)c3)ncnc2cc1OCC1CCCCO1 (centres undefined) . Reported pIC50? > 7.30

Entry under review: CCCCC(CC)C(=O)N1CCOC(COc2cc3ncnc(Nc4ccc(Cl)c(Cl)c4)c3cc2OC)C1 (centres undefined) . Reported pIC50? 6.00 to 7.30

Entry under review: COc1cc2c(Nc3ccc(Cl)c(Cl)c3)ncnc2cc1OCC1CN(CCC2OCCO2)CCO1 (centres undefined) . Reported pIC50? > 7.30

Entry under review: COc1cc2c(Nc3cccc(Br)c3Cl)ncnc2cc1OCC1CN(C)CCO1 (centres undefined) . Reported pIC50? > 7.30

Entry under review: COc1cc2c(Nc3ccc(Cl)c(Cl)c3)ncnc2cc1OCC1CN(C(N)=NC#N)CCO1 (centres undefined) . Reported pIC50? > 7.30

Entry under review: COc1cc2c(Nc3ccc(Br)c(Cl)c3)ncnc2cc1OCC1CN(C)CCO1 (centres undefined) . Reported pIC50? > 7.30
